Target: UniProt P11166
Assay: Indirect measurement of GLUT1 activity by quantification of intracellular ATP levels (glucose induced ATP increase)
Assay type: cell-based
Parameters: endogenous in cells; host or cells: DLD1 or CHO-K1
Conditions: read-out: IC50 regarding glucose induced ATP increase (GLUT1 inhibition)
pIC50: −log10 of the molar value.
Response field class: string, computed from recorded pIC50 by ranges class 0 (below 7), class 1 (7 to below 8), class 2 (8 or more)

Reference set, count: 6
1. Cc1c(NC(=O)c2cc(C(F)(F)F)nc3ccc(Br)cc23)c(C(F)(F)F)nn1Cc1ccc(F)c(F)c1 [Example 197] ... class 0
2. Cc1c(NC(=O)c2cc(C(N)=O)nc3ccc(F)cc23)c(C(F)(F)F)nn1Cc1ccc(C#N)cc1 [Example 219] ... class 2
3. Cc1c(NC(=O)c2cc(C(N)=O)nc3cc(F)c(Cl)cc23)c(C(F)(F)F)nn1Cc1ccc(C#N)cc1 [Example 213] ... class 2
4. Cc1nn(Cc2ncccc2C#N)c(C)c1NC(=O)c1cc(C(N)=O)nc2cc(F)c(Cl)cc12 [Example 1411] ... class 2
5. Cc1nn(Cc2ccc(F)cc2)c(C)c1NC(=O)c1cc(C(F)(F)F)nc2cc(Cl)c(Cl)cc12 [Example 106] ... class 0
6. CCS(=O)(=O)N1CCC(Cn2nc(C)c(NC(=O)c3cc(C(F)(F)F)nc4ccc(Br)cc34)c2C)CC1 [Example 1533] ... class 0

Ask: Band of Cc1c(NC(=O)c2cc(C(N)=O)nc3cccc(F)c23)c(C(F)(F)F)nn1Cc1cccc(C(N)=O)c1 [Example 1602] ?
Result: class 1

Ask: Exam item: assign C=Cc1ccc(Cn2nc(C)c(NC(=O)c3cc(C)nc4ccc(C)cc34)c2C)cc1 [Example 1097] to the correct category.
Result: class 1

Ask: Determine which band this molecule sits in: Cc1nn(Cc2ncco2)c(C)c1NC(=O)c1cc(C(F)(F)F)nc2ccc(Br)cc12 [Example 1506]
Result: class 1

* * *

Biological target: GLUT1 (Homo sapiens)
Experiment: Indirect measurement of GLUT1 activity by quantification of intracellular ATP levels (glucose induced ATP increase)
Assay type: cell-based
Parameters: endogenous in cells; host or cells: DLD1 or CHO-K1
Conditions: read-out: IC50 regarding glucose induced ATP increase (GLUT1 inhibition)
Reported IC50 is given for each of the following compounds.
Numeric only. Scale: nM

1) COc1ccc(Cn2nc(C(F)(F)F)c(NC(=O)c3cc(C(F)(F)F)nc4ccc(Br)cc34)c2C)cn1 [Example 1027] ... 3
2) Cc1cc(Cn2nc(C(F)(F)F)c(NC(=O)c3cc(C(N)=O)nc4ccccc34)c2C)no1 [Example 1538] ... 73.1
3) Cc1c(NC(=O)c2cc(C(N)=O)nc3cc(F)c(Cl)cc23)c(C(F)(F)F)nn1Cc1ccc(F)cc1C#N [Example 1657] ... 3.4
4) CNC(=O)c1nc(Cn2nc(C)c(NC(=O)c3cc(C(N)=O)nc4ccccc34)c2C)no1 [Example 1509] ... 16.3
5) Cc1nn(Cc2ccc(F)cc2)c(C)c1NC(=O)c1cc(C(F)(F)F)nc2ccc(C(=O)O)cc12 [Example 1267] ... 2710
6) COCCCNC(=O)c1ccc(Cn2nc(C)c(NC(=O)c3cc(C(F)(F)F)nc4ccc(Br)cc34)c2C)cc1 [Example 1120] ... 65.5
7) Cc1c(NC(=O)c2cc(C(N)=O)nc3ccccc23)c(C(F)(F)F)nn1Cc1ncco1 [Example 1540] ... 275
8) Cc1nn(Cc2ccc(C#N)cc2)c(C)c1NC(=O)c1cc(C(=O)NCCO)nc2cc(F)ccc12 [Example 1399] ... 132
9) Cc1nn(Cc2cn3ccccc3n2)c(C)c1NC(=O)c1cc(C(F)(F)F)nc2ccc(Br)cc12 [Example 1528] ... 59.4
10) Cc1nn(Cc2ccc(C#N)cc2)c(C)c1NC(=O)c1cc(C(=O)N2CCC2)nc2cc(F)ccc12 [Example 1428] ... 12.3

IC50 measured on Cc1nn(Cc2ccc(C(=O)O)cc2)c(C)c1NC(=O)c1cc(C(F)(F)F)nc2ccc(Br)cc12 [Example 132] = 5560

Record Cc1nn(Cc2ccc(C(=O)NCCCCCO)cc2)c(C)c1NC(=O)c1cc(C(F)(F)F)nc2ccc(Br)cc12 [Example 1077] , field IC50: 23.1

* * *

Biological target: UniProt:P11166
Assay: Indirect measurement of GLUT1 activity by quantification of intracellular ATP levels (glucose induced ATP increase)
Type: cell-based
Set-up: endogenous in cells; host or cells: DLD1 or CHO-K1
Settings: read-out: IC50 regarding glucose induced ATP increase (GLUT1 inhibition)
A collection of molecules and their measured pIC50
In plain terms, pIC50 is the concentration in mol/L turned into minus its base-10 logarithm.

Recorded results for 3 molecules are shown here.
1) Cc1nn(Cc2ccc(C(=O)NCC(F)(F)F)cc2)c(C)c1NC(=O)c1cc(C(F)(F)F)nc2ccc(Br)cc12 ... 7.81
2) Cc1nn(Cc2ccc(CC(=O)O)cc2)c(C)c1NC(=O)c1cc(C(F)(F)F)nc2ccc(Br)cc12 ... 5.89
3) Cc1c(NC(=O)c2cc(C(N)=O)nc3cccc(F)c23)c(C(F)(F)F)nn1Cc1cccc(S(C)(=O)=O)c1 ... 6.56

Tested on UniProt:P11166: COc1ccc(Cn2nc(C)c(NC(=O)c3cc(C(F)(F)F)nc4c(Cl)cc(Cl)cc34)c2C)cc1 . Observed pIC50: 8.27

Observed pIC50, UniProt:P11166, Cc1ccc2nc(C)cc(C(=O)Nc3c(C)nn(Cc4cccc(C#N)c4)c3C)c2c1 : 5.20

* * *

Target: GLUT1 (Homo sapiens, UniProt P11166)
Sequence (P11166 1-492): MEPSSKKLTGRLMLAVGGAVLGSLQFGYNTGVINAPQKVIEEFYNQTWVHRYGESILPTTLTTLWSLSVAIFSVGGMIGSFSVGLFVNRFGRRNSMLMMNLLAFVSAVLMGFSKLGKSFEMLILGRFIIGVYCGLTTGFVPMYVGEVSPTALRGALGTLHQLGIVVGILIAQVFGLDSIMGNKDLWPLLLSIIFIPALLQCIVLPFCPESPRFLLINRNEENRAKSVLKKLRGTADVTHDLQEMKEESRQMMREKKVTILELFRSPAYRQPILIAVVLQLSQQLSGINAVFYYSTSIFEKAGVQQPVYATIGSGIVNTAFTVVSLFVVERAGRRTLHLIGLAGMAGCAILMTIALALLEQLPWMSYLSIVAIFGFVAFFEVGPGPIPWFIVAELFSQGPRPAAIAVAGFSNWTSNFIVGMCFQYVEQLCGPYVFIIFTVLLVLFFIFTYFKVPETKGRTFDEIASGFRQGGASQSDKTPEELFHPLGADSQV
Assay: Indirect measurement of GLUT1 activity by quantification of intracellular ATP levels (glucose induced ATP increase)
Format: cell-based
Design: endogenous in cells; host or cells: DLD1 or CHO-K1
Details: read-out: IC50 regarding glucose induced ATP increase (GLUT1 inhibition)
observed.property: IC50 (nM)
Please give a number only; it is taken to be in nM.

1) Cc1c(NC(=O)c2cc(C(N)=O)nc3ccc(N4CCN(C)CC4)cc23)c(C(F)(F)F)nn1Cc1ccc(C#N)cc1 ... 127

Measured IC50 for this entry Cc1c(NC(=O)c2cc(C(N)=O)nc3cc(F)ccc23)c(C(F)(F)F)nn1Cc1ccc(C(C)(C)C#N)cc1 on GLUT1 (Homo sapiens, UniProt P11166): 67.2

* * *

Molecular target: GLUT1 (Homo sapiens)
Assay: Indirect measurement of GLUT1 activity by quantification of intracellular ATP levels (glucose induced ATP increase)
Type: cell-based
Parameters: endogenous in cells; host or cells: DLD1 or CHO-K1
Settings: read-out: IC50 regarding glucose induced ATP increase (GLUT1 inhibition)
observed.property: IC50 (nM)
Note: unit nM is implicit; provide only the numeric part.

Completed entries (count: 2):
1) Cc1nn(C(C)c2ccc(F)cc2)c(C)c1NC(=O)c1cc(C(N)=O)nc2ccccc12 (racemic) ... 125
2) Cc1ccc2c(C(=O)Nc3c(C(F)(F)F)nn(Cc4ccc(C#N)cc4)c3C)cc(C(N)=O)nc2c1 ... 8.4

Note to self: IC50 recorded for Cc1nn(Cc2ccc(F)cc2)c(C)c1NC(=O)c1cc(C2CC2)nc2ccc(F)cc12 was 6.4

* * *

Catalogue of pIC50 values
Molecular target: GLUT1 (Homo sapiens, UniProt P11166)
Test: Indirect measurement of GLUT1 activity by quantification of intracellular ATP levels (glucose induced ATP increase)
Format: cell-based
Parameters: endogenous in cells; host or cells: DLD1 or CHO-K1
Settings: read-out: IC50 regarding glucose induced ATP increase (GLUT1 inhibition)
Note on pIC50: it is the negative log10 of concentration, concentration in mol/L.

1. Cc1nn(Cc2ccc(F)cc2)c(C)c1NC(=O)c1cc(C(F)(F)F)nc2cc(C(F)(F)F)ccc12 ... 5.42
2. Cc1cccc(Cn2nc(C(F)(F)F)c(NC(=O)c3cc(C(N)=O)nc4ccc(Br)cc34)c2C)c1 ... 8.28

Per the record, Cc1nn(CC2COc3ccccc3O2)c(C)c1NC(=O)c1cc(C(N)=O)nc2ccccc12 (stereo not drawn) has pIC50 of 7.35

Hey, just so you know, these numbers are from patent US20170037028A1.
